Exercise: for every item that follows, state its recorded MIC.
Tested on: S. pneumoniae ATCC49619
assayNotes: MIC, microdilution broth method (NCCLS)
Format: cell-based
experimentalContext: Streptococcus pneumoniae, Table 1, 6-Carbamoyl-3-Acyl Macrolide Derivatives, read-out: MIC Values, D: S. pneumoniae ATCC49619
Answer in µg/mL, number only, no unit symbol.

I have this compound here, `CC[C@H]1OC(=O)[C@H](C)[C@@H](OC(=O)Cc2cccnc2)[C@H](C)[C@@H](O[C@@H]2O[C@H](C)C[C@H](N(C)C)[C@H]2OC(C)=O)[C@](C)(OC(=O)NCc2cnc3ccccc3c2)C[C@@H](C)C(=O)[C@H](C)[C@H]2NC(=O)O[C@@]21C` , and I need its recorded MIC.
0.03

Requested read-out: MIC. Entry: `CC[C@H]1OC(=O)[C@H](C)[C@@H](OC(=O)c2ccccc2)[C@H](C)[C@@H](O[C@@H]2O[C@H](C)C[C@H](N(C)C)[C@H]2O)[C@](C)(OC(=O)NC/C=C/c2cccnc2)C[C@@H](C)C(=O)[C@H](C)[C@H]2NC(=O)O[C@@]21C`
0.12

====

Consider the following compounds; for each one, report its MIC.
Test system: E. faecalis ATCC29212
assayNotes: MIC, microdilution broth method (NCCLS)
Assay type: cell-based
experimentalContext: Enterococcus faecalis, Table 2, 3,6-Dicarbamoyl Macrolide Derivatives, read-out: MIC Values, C: E. faecalis ATCC29212
Report only the number, with the unit µg/mL understood.

If you can, please state the reported MIC value of CC[C@H]1OC(=O)[C@H](C)[C@@H](OC(=O)N(C)Cc2cccnc2)[C@H](C)[C@@H](O[C@@H]2O[C@H](C)C[C@H](N(C)C)[C@H]2O)[C@](C)(OC(=O)NC/C=C/c2ccc(-c3ncccn3)cc2)C[C@@H](C)C(=O)[C@H](C)[C@H]2NC(=O)O[C@@]21C [Compound 58] .
0.25

Entry under review: CC[C@H]1OC(=O)[C@H](C)[C@@H](OC(=O)N(CC)Cc2cccnc2)[C@H](C)[C@@H](O[C@@H]2O[C@H](C)C[C@H](N(C)C)[C@H]2O)[C@](C)(OC(=O)NC/C=C/c2ccc(-c3ncccn3)cc2)C[C@@H](C)C(=O)[C@H](C)[C@H]2NC(=O)O[C@@]21C [Compound 61] . Reported MIC?
0.5

Looking for the measured MIC of CC[C@H]1OC(=O)[C@H](C)[C@@H](OC(=O)Nc2ccc3ccccc3c2)[C@H](C)[C@@H](O[C@@H]2O[C@H](C)C[C@H](N(C)C)[C@H]2O)[C@](C)(OC(=O)NC/C=C/c2ccc(-c3ncccn3)cc2)C[C@@H](C)C(=O)[C@H](C)[C@H]2NC(=O)O[C@@]21C [Compound 53] , can you help?
1

Quick one: MIC of CC[C@H]1OC(=O)[C@H](C)[C@@H](OC(=O)Nc2ccc(OC)nc2)[C@H](C)[C@@H](O[C@@H]2O[C@H](C)C[C@H](N(C)C)[C@H]2O)[C@](C)(OC(=O)NC/C=C/c2ccc(-c3ncccn3)cc2)C[C@@H](C)C(=O)[C@H](C)[C@H]2NC(=O)O[C@@]21C [Compound 50] ?
0.5

====

For each entry below, report its MIC value.
System: H. influenzae ATCC49247
assayNotes: MIC, microdilution broth method (NCCLS)
Type: cell-based
experimentalContext: Haemophilus influenzae, Table 2, 3,6-Dicarbamoyl Macrolide Derivatives, read-out: MIC Values, E: H. influenzae ATCC49247
The response must be a number in µg/mL with no trailing unit.

Request body: readout MIC, system H. influenzae ATCC49247, query `CC[C@H]1OC(=O)[C@H](C)[C@@H](OC(=O)N(CC)CC)[C@H](C)[C@@H](O[C@@H]2O[C@H](C)C[C@H](N(C)C)[C@H]2O)[C@](C)(OC(=O)NC/C=C/c2cnc3ccccc3c2)C[C@@H](C)C(=O)[C@H](C)[C@H]2NC(=O)O[C@@]21C` . Return the value.
4

What is its MIC for H. influenzae ATCC49247? Entry: `CC[C@H]1OC(=O)[C@H](C)[C@@H](OC(=O)N(C)C(C)C)[C@H](C)[C@@H](O[C@@H]2O[C@H](C)C[C@H](N(C)C)[C@H]2O)[C@](C)(OC(=O)NC/C=C/c2ccc(-c3ncccn3)cc2)C[C@@H](C)C(=O)[C@H](C)[C@H]2NC(=O)O[C@@]21C`
4

So what MIC did `CC[C@H]1OC(=O)[C@H](C)[C@@H](OC(=O)N(CC)Cc2cccnc2)[C@H](C)[C@@H](O[C@@H]2O[C@H](C)C[C@H](N(C)C)[C@H]2O)[C@](C)(OC(=O)NC/C=C/c2ccc(-c3ncccn3)cc2)C[C@@H](C)C(=O)[C@H](C)[C@H]2NC(=O)O[C@@]21C` get with H. influenzae ATCC49247?
8

Request: MIC, test system H. influenzae ATCC49247, entry `CC[C@H]1OC(=O)[C@H](C)[C@@H](OC(=O)N(C)c2cccnc2)[C@H](C)[C@@H](O[C@@H]2O[C@H](C)C[C@H](N(C)C)[C@H]2O)[C@](C)(OC(=O)NC/C=C/c2ccc(-c3ncccn3)cc2)C[C@@H](C)C(=O)[C@H](C)[C@H]2NC(=O)O[C@@]21C`
4
